# testTarget: Large neutral amino acids transporter small subunit 1 (Homo sapiens) (UniProt Q01650)
# Sequence (Q01650 whole entry): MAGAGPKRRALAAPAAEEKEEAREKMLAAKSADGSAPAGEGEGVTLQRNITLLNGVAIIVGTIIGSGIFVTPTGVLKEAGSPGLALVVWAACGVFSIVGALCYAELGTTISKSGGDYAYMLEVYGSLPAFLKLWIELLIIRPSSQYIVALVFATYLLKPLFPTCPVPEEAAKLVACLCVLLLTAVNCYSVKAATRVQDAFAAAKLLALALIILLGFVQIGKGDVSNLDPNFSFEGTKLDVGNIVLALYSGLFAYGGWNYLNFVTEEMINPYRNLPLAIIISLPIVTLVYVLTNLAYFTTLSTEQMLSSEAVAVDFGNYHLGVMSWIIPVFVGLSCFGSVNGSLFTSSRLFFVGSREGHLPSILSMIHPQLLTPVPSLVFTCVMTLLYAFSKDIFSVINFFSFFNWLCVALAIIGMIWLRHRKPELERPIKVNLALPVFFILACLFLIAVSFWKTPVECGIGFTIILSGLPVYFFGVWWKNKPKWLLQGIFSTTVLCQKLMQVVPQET
# assayInfo: Trans-stimulation of human LAT1 expressed in TREx HEK293 cells assessed as induction of [3H]-gabapentin efflux at 200 uM after 3 mins by scintillation counting analysis relative to L-phenylalanine
# Format: cell-based
The following ranges of Activity define the classes used here: low = under 40%, intermediate = from 40% up to 90%, high = 90% and over

Asked: Bin? NC(Cc1ccccc1)(Cc1ccccc1)C(=O)O
Given back: low

Asked: Which band does N[C@@H](Cc1cccc(C(=O)O)c1)C(=O)O fall in?
Given back: intermediate

Asked: For the record CSCC[C@@](N)(Cc1ccccc1)C(=O)O , report the class its Activity corresponds to.
Given back: low

Asked: Could you tell me which band CC(=O)Nc1cccc(C[C@H](N)C(=O)O)c1 belongs to?
Given back: high

Asked: Any idea which band N[C@@H](Cc1cccc(Cc2ccccc2)c1)C(=O)O is in?
Given back: low

Asked: Band for Cc1ccc(C[C@H](N)C(=O)O)cc1 ?
Given back: high

Asked: Exam item: assign N[C@@H](Cc1c[nH]cn1)C(=O)O to the correct category.
Given back: high

Asked: Which of the defined bands does the recorded Activity of NCCCC[C@H](N)C(=O)O sit within?
Given back: low

Asked: Assign a bin to Cc1cccc(C[C@H](N)C(=O)O)c1
Given back: high

Asked: Place this compound in its band: N#Cc1cccc(C[C@H](N)C(=O)O)c1
Given back: intermediate

Asked: For the record COC(=O)Cc1cccc(C[C@H](N)C(=O)O)c1 , report the class its Activity corresponds to.
Given back: intermediate

Asked: Which Activity category applies to N[C@@H](Cc1cccc(CO)c1)C(=O)O here?
Given back: high

Asked: Lab note: which band did CC(C)(C)c1cccc(C[C@H](N)C(=O)O)c1 land in?
Given back: intermediate

Asked: Categorize the following entry: N[C@@H](Cc1c[nH]c2ccccc12)C(=O)O
Given back: intermediate

Asked: State the band of N=C(N)NCCC[C@H](N)C(=O)O
Given back: low

Asked: Entry CC[C@H](C)[C@H](N)C(=O)O belongs to which category?
Given back: high

Asked: Which class does N[C@H](Cc1ccc(O)cc1)C(=O)O fall in?
Given back: intermediate

Asked: Just checking, what class would you give Cc1cc(C[C@H](N)C(=O)O)cc(C(=O)O)c1 here?
Given back: low

Asked: Which of the defined bands does the recorded Activity of CNC(=O)c1cccc(C[C@H](N)C(=O)O)c1 sit within?
Given back: high

Asked: Class label required: CC(C)[C@H](N)C(=O)O
Given back: high

Asked: State the class of the compound shown: N[C@H](Cc1ccccc1)C(=O)O
Given back: high

Asked: Category of N[C@@H](Cc1ccc(O)cc1)C(=O)O , please.
Given back: high

Asked: Could you place N[C@H](Cc1c[nH]cn1)C(=O)O in its proper category? Many thanks.
Given back: intermediate

Asked: For this compound, which bin applies? N[C@H](Cc1c[nH]c2ccccc12)C(=O)O
Given back: intermediate

Asked: Which category fits this record: NCC(=O)O
Given back: low

Asked: Lab note: sort CSCC[C@@H](N)C(=O)O into the matching Activity band.
Given back: high

Asked: Form field 'band' for CC(=O)Oc1cccc(C[C@H](N)C(=O)O)c1
Given back: low

Asked: Which Activity band matches N[C@@H](Cc1cccc(CC(=O)O)c1)C(=O)O ?
Given back: low

Asked: # classify by Activity band: CC[C@H](C)[C@@H](N)C(=O)O
Given back: intermediate

Asked: In plain terms, what class is N[C@H](Cc1cccc(C(=O)O)c1)C(=O)O ?
Given back: low

Asked: Could you tell me which band CC(=O)c1cccc(C[C@H](N)C(=O)O)c1 belongs to?
Given back: high

Asked: In plain terms, what class is N[C@@H](Cc1cccc(O)c1)C(=O)O ?
Given back: high

Asked: Kindly identify the class of CC(C)C[C@](N)(Cc1ccccc1)C(=O)O .
Given back: low

Asked: Which band does CC(C)(C)OC(=O)c1cccc(C[C@H](N)C(=O)O)c1 fall in?
Given back: intermediate

Asked: Bin? N[C@@H](Cc1cccc(C(F)(F)F)c1)C(=O)O
Given back: intermediate

Asked: Please indicate the class for CC(C)C[C@@](N)(Cc1ccccc1)C(=O)O based on its Activity.
Given back: low

Asked: Classify this compound: N[C@@H](Cc1cccc(C(=O)OCCO)c1)C(=O)O
Given back: intermediate

Asked: Hello team, could you let me know which band the following compound falls into: N[C@@H](CCC(=O)O)C(=O)O
Given back: low

Asked: Which bin, given its Activity, does Nc1cccc(C[C@H](N)C(=O)O)c1 occupy?
Given back: high

Asked: // bin(item) where item = N[C@@H](Cc1ccccc1)C(=O)O
Given back: high

Asked: Into which category would you place COC(=O)c1cc(C)cc(C[C@H](N)C(=O)O)c1 ?
Given back: intermediate

Asked: Bin this entry: COC(=O)c1ccc(C[C@H](N)C(=O)O)cc1
Given back: intermediate

Asked: Where would NCc1cccc(C[C@H](N)C(=O)O)c1 land among the classes by reported Activity?
Given back: intermediate

Asked: Kindly state the category for this compound: CSCC[C@](N)(Cc1ccccc1)C(=O)O
Given back: intermediate

Asked: Quick check: band for N[C@@H](Cc1cn(Cc2ccccc2)cn1)C(=O)O
Given back: intermediate

Asked: Which bin should I file N[C@@H](Cc1cccc(-c2ccccc2)c1)C(=O)O under?
Given back: low

Asked: Bin? N[C@@](Cc1ccccc1)(Cc1c[nH]cn1)C(=O)O
Given back: low
